Values from patent US20200317779A1

Biological target: recombinant human CD3ε/δ heterodimer (human) (UniProt P07766)
Sequence (P07766 23-126, stated change not applied, chain 1 of 2): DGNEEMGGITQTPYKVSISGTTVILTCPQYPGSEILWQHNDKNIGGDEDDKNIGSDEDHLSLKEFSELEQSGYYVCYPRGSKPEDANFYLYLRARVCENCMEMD
Sequence (P04234 22-105, stated change not applied, chain 2 of 2, further chain): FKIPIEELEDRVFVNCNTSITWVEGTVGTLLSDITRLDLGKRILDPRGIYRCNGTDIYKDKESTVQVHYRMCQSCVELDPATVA
Assay: BLI (Octet), antigen on anti-Penta His sensor, antibody 50 nM
koff values for the binders below.
Recorded metric: koff (s⁻¹)

Binder	Measured number
G15 (antibody, human IgG1, lambda, L234A L235A, V domains shown) VH: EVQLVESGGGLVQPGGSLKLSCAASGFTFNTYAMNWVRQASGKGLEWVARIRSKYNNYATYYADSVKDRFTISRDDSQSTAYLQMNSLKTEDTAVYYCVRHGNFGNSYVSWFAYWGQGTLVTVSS VL: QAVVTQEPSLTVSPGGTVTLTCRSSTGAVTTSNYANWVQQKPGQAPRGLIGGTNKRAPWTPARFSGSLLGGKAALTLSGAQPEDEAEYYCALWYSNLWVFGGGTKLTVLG	0.000332
D15 (antibody, human IgG1, lambda, L234A L235A, V domains shown) VH: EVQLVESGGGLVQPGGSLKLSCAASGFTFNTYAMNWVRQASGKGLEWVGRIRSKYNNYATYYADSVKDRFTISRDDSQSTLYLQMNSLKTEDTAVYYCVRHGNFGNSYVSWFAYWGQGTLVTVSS VL: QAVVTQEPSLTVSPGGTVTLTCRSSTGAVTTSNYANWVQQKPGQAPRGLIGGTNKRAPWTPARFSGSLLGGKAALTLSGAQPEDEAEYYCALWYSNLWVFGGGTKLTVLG	9.6e-05
